Test system: MAC 15A adenocarcinoma of the colon
Experiment: In vitro chemosensitivity against MAC 15A adenocarcinoma (MTT assay)
Type: cell-based
Conditions: Mus musculus, MAC15A, 96 hours continuous exposure
Where a name gives a salt, the structure may show the parent alone.
observed_property: pIC50
Give bare numbers, as −log10 of the molar value.

Solved entries:
>>> reported_measurement("C[C@@H](N)C(=O)OCCCCNc1cccc2c1C(=O)c1ccccc1C2=O.O=C(O)C(F)(F)F [Example 45, trifluoroacetate]")
5.54
>>> reported_measurement("C[C@H](N)C(=O)OCCCCCNc1cccc2c1C(=O)c1ccccc1C2=O [Example 93, trifluoroacetate]")
5.46
>>> reported_measurement("NCC(=O)OCCNc1cccc2c1C(=O)c1ccccc1C2=O.O=C(O)C(F)(F)F [Example 59, trifluoroacetate]")
5.46

// moving on: another record for pIC50
Query: Which pIC50 reading was recorded for the compound CC(C)[C@@H](N)C(=O)OCCNc1cccc2c1C(=O)c1ccccc1C2=O [Example 27, trifluoroacetate] ?
Reply: 4.85

----------
Could you please report measured melting point for the items listed next?
Give bare numbers, in °C.

Solved entries:
>>> reported_measurement("N[C@H](Cc1ccccc1)C(=O)OCCCNc1cccc2c1C(=O)c1ccccc1C2=O.O=C(O)C(F)(F)F")
102
>>> reported_measurement("C[C@@H](NC(=O)OC(C)(C)C)C(=O)OCCCNc1cccc2c1C(=O)c1ccccc1C2=O")
58
>>> reported_measurement("NCC(=O)OCCCNc1ccc(O)c2c1C(=O)c1c(O)cccc1C2=O.O=C(O)C(F)(F)F")
196
>>> reported_measurement("C[C@H](NC(=O)OC(C)(C)C)C(=O)OCCCCNc1cccc2c1C(=O)c1ccccc1C2=O")
102
>>> reported_measurement("C[C@H](NC(=O)OC(C)(C)C)C(=O)OCCCNc1cccc2c1C(=O)c1ccccc1C2=O")
60
>>> reported_measurement("CC(C)(C)OC(=O)NCC(=O)OCCCNc1ccc(O)c2c1C(=O)c1c(O)cccc1C2=O")
152

I have 2 compounds here; please give me melting point for each one.
1. CNCC(=O)OCCCCNc1cccc2c1C(=O)c1ccccc1C2=O.O=C(O)C(F)(F)F
2. C[C@H](N)C(=O)OCCCNc1cccc2c1C(=O)c1ccccc1C2=O.O=C(O)C(F)(F)F

Reply:
[132, 126]

I have 5 compounds here; please give me melting point for each one.
1. CN(CC(=O)OCCCCNc1cccc2c1C(=O)c1ccccc1C2=O)C(=O)OC(C)(C)C
2. CC(C)(C)OC(=O)NCC(=O)OCCCCNc1cccc2c1C(=O)c1ccccc1C2=O
3. CC(C)(C)OC(=O)NCC(=O)OCCNc1cccc2c1C(=O)c1ccccc1C2=O
4. C[C@@H](C(=O)OCCCCNc1cccc2c1C(=O)c1ccccc1C2=O)N(C)C(=O)OC(C)(C)C
5. CC(C)(C)OC(=O)NCC(=O)OCCCNc1ccc(O)c2c1C(=O)c1ccccc1C2=O

Reply:
90
70
122
62
124

----------
Could you please report measured IC50 for the items listed next?
Test system: MAC 15A adenocarcinoma of the colon
Experiment: In vitro chemosensitivity against MAC 15A adenocarcinoma (MTT assay)
Type: cell-based
Settings: Mus musculus, MAC15A, 96 hours continuous exposure
Counter-ions that a name gives are not always drawn.
Numbers only, in µM.

>>> reported_measurement("C[C@H](N)C(=O)OCCNc1cccc2c1C(=O)c1ccccc1C2=O [Example 23, trifluoroacetate]")
7.5

I have 2 compounds here; please give me IC50 for each one.
1. CNCC(=O)OCCCCNc1cccc2c1C(=O)c1ccccc1C2=O.O=C(O)C(F)(F)F [Example 83, trifluoroacetate]
2. O=C(O)C(F)(F)F.O=C1c2ccccc2C(=O)c2c(NCCCOC(=O)[C@@H]3CCCN3)cccc21 [Example 67, trifluoroacetate]

Reply:
7.2
8.3

I have 2 compounds here; please give me IC50 for each one.
1. C[C@H](N)C(=O)OCCCNc1cccc2c1C(=O)c1ccccc1C2=O.O=C(O)C(F)(F)F [Example 29, trifluoroacetate]
2. NCC(=O)OCCCNc1cccc2c1C(=O)c1ccccc1C2=O.O=C(O)C(F)(F)F [Example 61, trifluoroacetate]

Reply:
1: 9.7; 2: 10.6

----------
Answer N if melting point is under 100 °C, and Y if it is 100 °C or more.

>>> discrete_label("O=C(O)C(F)(F)F.O=C1c2ccccc2C(=O)c2c(NCCCOC(=O)[C@@H]3CCCN3)cccc21")
"N"

Query: I'd appreciate it if you could say whether CC[C@H](N)C(=O)OCCCCNc1cccc2c1C(=O)c1ccccc1C2=O.O=C(O)C(F)(F)F has melting point at least equal to 100 °C.
Reply: Y

Query: What do we get for CC(C)(C)OC(=O)N1CCC[C@H]1C(=O)OCCCNc1cccc2c1C(=O)c1ccccc1C2=O ?
Reply: Y

Query: What do we get for NCC(=O)OCCCNc1cccc2c1C(=O)c1ccccc1C2=O.O=C(O)C(F)(F)F ?
Reply: Y

Query: What do we get for NCC(=O)N1CCC[C@H]1C(=O)OCCCNc1cccc2c1C(=O)c1ccccc1C2=O.O=C(O)C(F)(F)F ?
Reply: Y

Query: What do we get for CC(C)C[C@H](NC(=O)OC(C)(C)C)C(=O)NCC(=O)OCCCNc1cccc2c1C(=O)c1ccccc1C2=O ?
Reply: N

Query: What do we get for CC[C@H](NC(=O)OC(C)(C)C)C(=O)OCCCCNc1cccc2c1C(=O)c1ccccc1C2=O ?
Reply: N

Query: What do we get for NCC(=O)OCCNc1cccc2c1C(=O)c1ccccc1C2=O.O=C(O)C(F)(F)F ?
Reply: Y

Query: What do we get for NCC(=O)OCCCNc1ccc(O)c2c1C(=O)c1ccccc1C2=O.O=C(O)C(F)(F)F ?
Reply: Y
